Tested on: HCT-116
ASSAY DETAILS: Antiproliferative activity against human HCT116 cells after 72 hrs by CCK-8 assay
Format: functional, cell-based
CONDITION DETAILS: HCT-116, 72 h
ENDPOINT LABEL: IC50 (nM)

COMPOUND	TARGET ENTITY	IC50 [nM]
Nc1ccccc1NC(=O)c1ccc(CSC(=S)N2CCN(c3ccccc3)CC2)cc1	HCT-116	2330

P: Nc1ccccc1NC(=O)c1ccc(CSC(=S)N2CCN(c3ccncc3)CC2)cc1
Q: Nc1ccccc1NC(=O)c1ccc(CSC(=S)N2CCc3ccccc3C2)cc1
Query block: Compare IC50: is it lower for P or for Q ? Please respond with the label that marks your chosen entry.
Result block: P
(P: 540 nM, Q: 1560 nM)
